test: Selectivity index, ratio of IC50 for cytotoxicity against human NHDF cells to IC50 for cytotoxicity against human HT-1080 cells
Measurement Kind: Ratio IC50
// print number alone

For the compound `COc1cccc(/C=C/c2cc(-c3cc(Cl)ccc3O)n(-c3ccccc3)n2)c1` , what Ratio IC50 is on record? 2.3

What about `Oc1ccccc1-c1cc(/C=C/c2cccs2)nn1-c1ccccc1` ? 1

Okay, and `Oc1ccc(Cl)cc1-c1cc(/C=C/c2ccc(Cl)c(Cl)c2)nn1-c1ccccc1` ? 2

And the next one, `Oc1ccccc1-c1cc(/C=C/c2ccc(Cl)s2)nn1-c1ccccc1` ? 1.1

And `O=[N+]([O-])c1cccc(/C=C/c2cc(-c3ccccc3O)n(-c3ccccc3)n2)c1` ? 2

Further, for `Oc1ccccc1-c1cc(/C=C/c2cccc(Cl)c2)nn1-c1ccccc1` ? 1.6

And `O=[N+]([O-])c1cccc(/C=C/c2cc(-c3cc(Cl)ccc3O)n(-c3ccccc3)n2)c1` ? 2.6

Continue with `Oc1ccc(Cl)cc1-c1cc(/C=C/c2cccs2)nn1-c1ccccc1` 2

Input `Cc1ccc(/C=C/c2cc(-c3cc(Cl)ccc3O)n(-c3ccccc3)n2)s1` 1.7

Moving on to the next compound: `Oc1ccc(Cl)cc1-c1cc(/C=C/c2ccc(Cl)s2)nn1-c1ccccc1` 1.4

Do the same for `COc1ccc(/C=C/c2cc(-c3cc(Cl)ccc3O)n(-c3ccccc3)n2)cc1` please 2.2

Next record, please: `Oc1ccc(Cl)cc1-c1cc(/C=C/c2ccccc2Cl)nn1-c1ccccc1` 0.9

// same read-out, input: `COc1ccc(/C=C/c2cc(-c3cc(Cl)ccc3O)n(-c3ccccc3)n2)cc1OC` 2.5

For `Cc1ccc(/C=C/c2cc(-c3ccccc3O)n(-c3ccccc3)n2)s1` then? 1.1

What do you have for `Oc1ccc(Cl)cc1-c1cc(/C=C/c2cccc(Cl)c2)nn1-c1ccccc1` ? 1.2

// next record `Oc1ccccc1-c1cc(/C=C/c2ccc(Cl)c(Cl)c2)nn1-c1ccccc1` 2

`COc1cc(/C=C/c2cc(-c3cc(Cl)ccc3O)n(-c3ccccc3)n2)cc(OC)c1OC` ? 3.9

Query `O=c1[nH]cc(F)c(=O)[nH]1` next 1.5

// same read-out, input: `Oc1ccc(Cl)cc1-c1cc(/C=C/c2ccc(Cl)cc2)nn1-c1ccccc1` 2

Next: `Oc1ccccc1-c1cc(/C=C/c2ccc(Cl)cc2)nn1-c1ccccc1` 1.5
